Source: ChEMBL document CHEMBL4270561

system: MCF-10A; experiment: Antiproliferative activity against human MCF10A cells at 100 ug/ml after 72 hrs by SRB assay relative to control; format: cell-based

# cpd-smiles, Activity
records = [
    ("C#CCNC(=O)[C@H](CC)[C@H]1CC[C@H](C)[C@H]([C@@H](C)[C@H](O)[C@H](C)C(=O)[C@H](CC)[C@H]2O[C@]3(C=C[C@@H](OC(=O)OCC)[C@]4(CC[C@@](C)([C@H]5CC[C@](O)(CC)[C@H](C)O5)O4)O3)[C@H](C)C[C@@H]2C)O1", "<= 50%"),
    ("CC[C@@H](C(=O)[C@@H](C)[C@@H](O)[C@H](C)[C@@H]1O[C@@H]([C@@H](CC)C(=O)OCC(F)(F)F)CC[C@@H]1C)[C@H]1O[C@]2(C=C[C@@H](OC(C)=O)[C@]3(CC[C@@](C)([C@H]4CC[C@](O)(CC)[C@H](C)O4)O3)O2)[C@H](C)C[C@@H]1C", "<= 50%"),
    ("C#CCOC(=O)[C@H](CC)[C@H]1CC[C@H](C)[C@H]([C@@H](C)[C@H](O)[C@H](C)C(=O)[C@H](CC)[C@H]2O[C@]3(C=C[C@@H](OC(=O)OCC)[C@]4(CC[C@@](C)([C@H]5CC[C@](O)(CC)[C@H](C)O5)O4)O3)[C@H](C)C[C@@H]2C)O1", "<= 50%"),
]

----------
experiment: Selectivity index, ratio of IC50 for human MCF10A cells to IC50 for human JIMT1 cells; assay type: toxicity; conditions: MCF10A cells versus JIMT1 cells, read-out: Ratio IC50
quantity-measured: selectivity ratio
Output: the number by itself.

Take a look at these entries with their results.
# cpd-smiles, quantity-measured, observed-value
records = [
    ("CC[C@@H](C(=O)[C@@H](C)[C@@H](O)[C@H](C)[C@@H]1O[C@@H]([C@@H](CC)C(=O)NCCc2ccc(F)cc2)CC[C@@H]1C)[C@H]1O[C@]2(C=C[C@@H](OC(C)=O)[C@]3(CC[C@@](C)([C@H]4CC[C@](O)(CC)[C@H](C)O4)O3)O2)[C@H](C)C[C@@H]1C", "selectivity ratio", 12),
    ("CC[C@@H](C(=O)[C@@H](C)[C@@H](O)[C@H](C)[C@@H]1O[C@@H]([C@@H](CC)C(=O)NCCc2ccc(F)cc2)CC[C@@H]1C)[C@H]1O[C@]2(C=C[C@@H](O)[C@]3(CC[C@@](C)([C@H]4CC[C@](O)(CC)[C@H](C)O4)O3)O2)[C@H](C)C[C@@H]1C", "selectivity ratio", 7.8),
]

If you can, please state the reported selectivity ratio value of CCNC(=O)O[C@@H]1C=C[C@]2(O[C@H]([C@@H](CC)C(=O)[C@@H](C)[C@@H](O)[C@H](C)[C@@H]3O[C@@H]([C@@H](CC)C(=O)OCC(F)(F)F)CC[C@@H]3C)[C@@H](C)C[C@H]2C)O[C@@]12CC[C@@](C)([C@H]1CC[C@](O)(CC)[C@H](C)O1)O2 .
5.5

----------
test: Selectivity index, ratio of IC50 for human MCF10A cells to IC50 for human JIMT1 cells; format: toxicity; conditions: MCF10A cells versus JIMT1 cells, read-out: Ratio IC50
Think of 9 as a floor: if selectivity ratio stands on it or above, it is Fulfilled; beneath it, Not fulfilled.

Known results for compounds:
# cpd-smiles, answer-label
measured = [
    ("CC[C@@H](C(=O)[C@@H](C)[C@@H](O)[C@H](C)[C@@H]1O[C@@H]([C@@H](CC)C(=O)O)CC[C@@H]1C)[C@H]1O[C@]2(C=C[C@@H](O)[C@]3(CC[C@@](C)([C@H]4CC[C@](O)(CC)[C@H](C)O4)O3)O2)[C@H](C)C[C@@H]1C", "Fulfilled"),
    ("C#CCNC(=O)[C@H](CC)[C@H]1CC[C@H](C)[C@H]([C@@H](C)[C@H](O)[C@H](C)C(=O)[C@H](CC)[C@H]2O[C@]3(C=C[C@@H](OC(C)=O)[C@]4(CC[C@@](C)([C@H]5CC[C@](O)(CC)[C@H](C)O5)O4)O3)[C@H](C)C[C@@H]2C)O1", "Not fulfilled"),
    ("C#CCOC(=O)[C@H](CC)[C@H]1CC[C@H](C)[C@H]([C@@H](C)[C@H](O)[C@H](C)C(=O)[C@H](CC)[C@H]2O[C@]3(C=C[C@@H](O)[C@]4(CC[C@@](C)([C@H]5CC[C@](O)(CC)[C@H](C)O5)O4)O3)[C@H](C)C[C@@H]2C)O1", "Not fulfilled"),
]

Please check the record CC[C@@H](C(=O)[C@@H](C)[C@@H](O)[C@H](C)[C@@H]1O[C@@H]([C@@H](CC)C(=O)OCC(F)(F)F)CC[C@@H]1C)[C@H]1O[C@]2(C=C[C@@H](O)[C@]3(CC[C@@](C)([C@H]4CC[C@](O)(CC)[C@H](C)O4)O3)O2)[C@H](C)C[C@@H]1C and state if its selectivity ratio is at or above 9.
Fulfilled

Do the same for C#CCNC(=O)[C@H](CC)[C@H]1CC[C@H](C)[C@H]([C@@H](C)[C@H](O)[C@H](C)C(=O)[C@H](CC)[C@H]2O[C@]3(C=C[C@@H](O)[C@]4(CC[C@@](C)([C@H]5CC[C@](O)(CC)[C@H](C)O5)O4)O3)[C@H](C)C[C@@H]2C)O1 please
Not fulfilled

What do you have for CCNC(=O)O[C@@H]1C=C[C@]2(O[C@H]([C@@H](CC)C(=O)[C@@H](C)[C@@H](O)[C@H](C)[C@@H]3O[C@@H]([C@@H](CC)C(=O)NCCc4ccc(F)cc4)CC[C@@H]3C)[C@@H](C)C[C@H]2C)O[C@@]12CC[C@@](C)([C@H]1CC[C@](O)(CC)[C@H](C)O1)O2 ?
Fulfilled

Try this compound next: C#CCNC(=O)[C@H](CC)[C@H]1CC[C@H](C)[C@H]([C@@H](C)[C@H](O)[C@H](C)C(=O)[C@H](CC)[C@H]2O[C@]3(C=C[C@@H](OC(=O)NCC)[C@]4(CC[C@@](C)([C@H]5CC[C@](O)(CC)[C@H](C)O5)O4)O3)[C@H](C)C[C@@H]2C)O1
Fulfilled
